Taken from patent US12338277.

Molecular target: T1, YU-2 gp120 (HIV-1 (strain YU-2), UniProt P35961 32-498)
T1 construct: domain: gp120; also called gp120WT; intact YU-2 gp120
Test: SPR, IgG over immobilised YU-2 gp120, 1:1 fit, apparent constant
pKd values for the binders below.
Scale explanation: pKd corresponds to minus log10 of a concentration expressed in moles per litre.

Sample records with pKd:
10-847 (antibody, V domains shown) VH: QVQLQESGPGLVKPSETLSVTCSVSGDSMNNYYWTWIRQSPGKGLEWIGYISDRASATYNPSLNSRVVISRDTSKNQLSLKLNSVTPADTAVYYCATARRGQRIYGVVSFGEFFYYYSMDVWGKGTTVTVSS VL: SYVRPLSVALGETASISCGRQALGSRAVQWYQHRPGQAPILLIYNNQDRPSGIPERFSGTPDINFGTRATLTISGVEAGDEADYYCHMWDSRSGFSWSFGGATRLTVL : 8.05
10-1074 (antibody, V domains shown) VH: QVQLQESGPGLVKPSETLSVTCSVSGDSMNNYYWTWIRQSPGKGLEWIGYISDRESATYNPSLNSRVVISRDTSKNQLSLKLNSVTPADTAVYYCATARRGQRIYGVVSFGEFFYYYSMDVWGKGTTVTVSS VL: SYVRPLSVALGETARISCGRQALGSRAVQWYQHRPGQAPILLIYNNQDRPSGIPERFSGTPDINFGTRATLTISGVEAGDEADYYCHMWDSRSGFSWSFGGATRLTVL : 8.02
10-410 (antibody, V domains shown) VH: QVQLQESGPGLVKPPETLSLTCSVSGASVNDAYWSWIRQSPGKRPEWVGYVHHSGDTNYNPSLKRRVTFSLDTAKNEVSLKLVALTAADSAVYFCARALHGKRIYGIVALGELFTYFYMDVWGKGTTVTVSS VL: SFVSVAPGQTARITCGEESLGSRSVIWYQQRPGQAPSLIIYNNNDRPSGIPERFSGSPGSTFGTTATLTITSVEAGDEADYYCHIWDSRRPTNWVFGEGTTLTVL : 7.33

Continue with the next binder.
Record request: pKd value, item 10-1341 (antibody, V domains shown) VH: QVQLQESGPGLVKPSETLSVTCSVSGDSMNNYYWTWIRQSPGKGLEWIGYISDRESATYNPSLNSRVVISRDTSTNQLSLKLNSVTPADTAVYYCATARRGQRIYGVVSFGEFFYYYSMDVWGRGTTVTVSS VL: SYVRPLSVALGETARISCGRQALGSRAVQWYQHRPGQAPILLIYNNQDRPSGIPERFSGTPDINFGTRATLTISGVEAGDEADYYCHMWDSRSGFSWSFGGATRLTVL
8.09
